experiment: Selectivity index, ratio of IC50 for CHO cells to IC50 for chloroquine-resistant Plasmodium falciparum K1 infected in normal type A human erythrocytes; format: toxicity, cell-based; conditions: Chinese hamster; read-out: Ratio IC50
testReadout: selectivity ratio

>>> print(df.to_string())
                                   molecule        testreadout  readingqualifier  assayvalue
0  OC12CC3CC(CC(C3)N1CCCNc1ccnc3cc(Cl)ccc13)C2  selectivity ratio                 =         467
1  OC12CC3CC(CC(C3)N1CCNc1ccnc3cc(Cl)ccc13)C2  selectivity ratio                 >        2820
2  Clc1ccc2c(NCCCCN=C3C4CC5CC(C4)CC3C5)ccnc2c1  selectivity ratio                 =          73
3  Clc1ccc2c(NCCN=C3C4CC5CC(C4)CC3C5)ccnc2c1  selectivity ratio                 =        1050
4  OC12C3C4CC5C6C4C1C6C(C53)N2CCNc1ccnc2cc(Cl)ccc12 (centres undefined)  selectivity ratio                 =         131
5  OC12CC3CC(CC(C3)N1CCCCNc1ccnc3cc(Cl)ccc13)C2  selectivity ratio                 =         191
6  OC12CC3CC(CC(C3)N1CCCCCCNc1ccnc3cc(Cl)ccc13)C2  selectivity ratio                 =         285
7  Clc1ccc2c(NCCCN=C3C4CC5CC(C4)CC3C5)ccnc2c1  selectivity ratio                 =         346
8  Clc1ccc2c(NCCCCCCN=C3C4CC5CC(C4)CC3C5)ccnc2c1  selectivity ratio                 =         104

====

test system: CHO; test: Cytotoxicity against CHO cells by MTT assay; format: cell-based; details: Cricetulus griseus
pIC50: −log10 of the molar value.
testReadout: pIC50

>>> print(df.to_string())
                                   compound  readingqualifier  assayvalue
0  CC[C@H]1CN2CCc3cc(OC)c(OC)cc3[C@@H]2C[C@@H]1C[C@H]1NCCc2cc(OC)c(OC)cc21                 =        6.89
1  OC12CC3CC(CC(C3)N1CCNc1ccnc3cc(Cl)ccc13)C2                 <        3.55
2  OC12CC3CC(CC(C3)N1CCCCCCNc1ccnc3cc(Cl)ccc13)C2                 =        4.09
3  Clc1ccc2c(NCCCCCCN=C3C4CC5CC(C4)CC3C5)ccnc2c1                 <        3.99
4  Clc1ccc2c(NCCCN=C3C4CC5CC(C4)CC3C5)ccnc2c1                 =        4.18
5  Clc1ccc2c(NCCN=C3C4CC5CC(C4)CC3C5)ccnc2c1                 =        4.01
6  OC12CC3CC(CC(C3)N1CCCCNc1ccnc3cc(Cl)ccc13)C2                 =        4.42
7  OC12CC3CC(CC(C3)N1CCCNc1ccnc3cc(Cl)ccc13)C2                 =        4.34
8  Clc1ccc2c(NCCCCN=C3C4CC5CC(C4)CC3C5)ccnc2c1                 =        4.24
9  CCN(CC)CCCC(C)Nc1ccnc2cc(Cl)ccc12 (stereo not given)                 =        4.24

====

test system: Plasmodium falciparum; assay: Antimalarial activity against chloroquine-sensitive Plasmodium falciparum NF54 infected in normal type A human erythrocytes incubated for 72 hrs by spectrophotometry based parasite lactate dehydrogenase assay; assay type: functional, organism-based; conditions: NF54, 72 h
testReadout: IC50

>>> print(df.to_string())
                                   compound  assayvalue
0  OC12C3C4CC5C6C4C1C6C(C53)N2CCNc1ccnc2cc(Cl)ccc12 (centres undefined)     9.84 nM
1  Clc1ccc2c(NCCCCCCN=C3C4CC5CC(C4)CC3C5)ccnc2c1      113 nM
2  OC12CC3CC(CC(C3)N1CCNc1ccnc3cc(Cl)ccc13)C2     46.9 nM
3  Clc1ccc2c(NCCN=C3C4CC5CC(C4)CC3C5)ccnc2c1     26.3 nM
4  OC12CC3CC(CC(C3)N1CCCNc1ccnc3cc(Cl)ccc13)C2     22.3 nM
5  Clc1ccc2c(NCCCCN=C3C4CC5CC(C4)CC3C5)ccnc2c1      108 nM
6  OC12CC3CC(CC(C3)N1CCCCNc1ccnc3cc(Cl)ccc13)C2     33.9 nM
7  Clc1ccc2c(NCCCN=C3C4CC5CC(C4)CC3C5)ccnc2c1        5 nM
8  OC12CC3CC(CC(C3)N1CCCCCCNc1ccnc3cc(Cl)ccc13)C2      112 nM

====

# reported Ratio IC50; entries follow
assay: Resistance index, ratio of IC50 for chloroquine-resistant Plasmodium falciparum K1 infected in normal type A human erythrocytes to IC50 for chloroquine-sensitive Plasmodium falciparum NF54 infected in normal type A human erythrocytes; format: functional
testReadout: Ratio IC50

>>> print(df.to_string())
                                   molecule  assayvalue
0  Clc1ccc2c(NCCN=C3C4CC5CC(C4)CC3C5)ccnc2c1        3.56
1  OC12CC3CC(CC(C3)N1CCCCCCNc1ccnc3cc(Cl)ccc13)C2        3.81
2  Clc1ccc2c(NCCCCCCN=C3C4CC5CC(C4)CC3C5)ccnc2c1       14.02
3  OC12CC3CC(CC(C3)N1CCCCNc1ccnc3cc(Cl)ccc13)C2        5.84
4  OC12CC3CC(CC(C3)N1CCCNc1ccnc3cc(Cl)ccc13)C2        4.34
5  Clc1ccc2c(NCCCCN=C3C4CC5CC(C4)CC3C5)ccnc2c1        7.23
6  OC12C3C4CC5C6C4C1C6C(C53)N2CCNc1ccnc2cc(Cl)ccc12 (stereo not drawn)        7.36
7  OC12CC3CC(CC(C3)N1CCNc1ccnc3cc(Cl)ccc13)C2        2.11
